System: NCI-H226
Assay: NCI tumour cell line growth inhibition, 48 h
Active and inactive are the calls of the source. Rule as the data show it: active = GI50 up to about 1.1 µM and inactive = higher.
// values below are reported GI50

[ask] Give the measured GI50 for COc1cc(/C=C2\N=C(c3ccccc3)N(c3nc4ccccc4s3)C2=O)cc(OC)c1OC
[reply] > 100 µM (inactive)

[ask] Answer with the recorded GI50 of COCO[C@@H]1C[C@H]2C(O)Nc3ccccc3C(=O)N2C1 (stereo partly specified) only.
[reply] > 100 µM (inactive)

[ask] Kindly indicate its recorded GI50. Item: Cc1ccc(OCC2OC(n3cnc4c(Cl)nc(Nc5cc(Cl)cc(Cl)c5)nc43)CC2Oc2ccc(C)cc2)cc1 (stereo unspecified)
[reply] > 100 µM (inactive)

[ask] For FC(F)(F)c1ccc(/N=C/C=C(/Nc2ccc(C(F)(F)F)cc2)c2ccc(Cl)cc2)cc1 , write its GI50.
[reply] 4.53 µM (inactive)

[ask] Please list GI50 recorded for the compound O=C(N/N=C(COc1ccc(Cl)cc1)\N=C\c1cccnc1)c1ccncc1
[reply] 68.2 µM (inactive)

[ask] Tell me GI50 reported for CCN1CCCn2c(=O)[nH]c3cc(Br)cc1c32
[reply] 55.5 µM (inactive)

====

Tested on: DMS-273
Assay: NCI tumour cell line growth inhibition, 48 h
The source made the active and inactive calls. Rule as the data show it: active = GI50 up to about 1.1 µM and inactive = higher.
Pick from YES for active, NO for inactive when you respond.

CSc1nc(NC2OCC(OC(C)=O)C(OC(C)=O)C2OC(C)=O)c(/N=C(\C)C(C)=O)c(=O)n1C (configuration not stated) ... NO

[ask] What was the test verdict on COc1ccc(/C=C2\CCCC(C(NO)c3ccc(OC)cc3)C2=NO)cc1 (configuration not stated) ?
[reply] NO

[ask] Dear all, I need the recorded test outcome for C[C@H]1COC2(c3ccccc3)CCC(=O)N12 (some centres not stated) , thank you.
[reply] NO

[ask] What classification did O=NN(CCCl)C(=O)NC1CCC(=O)NC1=O (configuration not stated) end up with in this test?
[reply] NO

[ask] How was CC1(O)CCn2c(=O)c3cc4ccccc4cc3c(=O)n2C1O (configuration not stated) classified in this test?
[reply] NO

[ask] Test call, this compound: Cc1ccc(C)c(NC(=O)CC2SC(Nc3ccccc3Cl)=NC2=O)c1 (configuration not stated)
[reply] NO

[ask] Record lookup: outcome of this test for O=c1cc(-c2ccccc2)oc2cc(O)cc(O)c12 ?
[reply] NO

[ask] Hi team, can someone confirm the assay call for NN=C1/C(=C\c2ccccc2)CCC/C1=C/c1ccccc1 ?
[reply] NO

[ask] Query: recorded result category for CCc1cc2c(Nc3ccccc3)c3c(nc2s1)CCCC3 in this test
[reply] NO

[ask] Hi team, can someone confirm the assay call for COc1cc2c(c(OC)c1OC)-c1ccc(SC)c(=O)cc1C(CC(=O)Oc1cccc(F)c1)C2 (configuration not stated) ?
[reply] YES

[ask] Outcome? O=[N+]([O-])/C=C/c1ccc(Cl)cc1Cl
[reply] NO

[ask] Short answer needed: outcome of this test for CS(=O)(=O)N(CCC#N)c1ccc(C=O)cc1 ?
[reply] NO

[ask] # lookup: test call for CCCC1=C(CC)C(C(=O)Nc2c(C)cccc2C)=NC(S)N1 (configuration not stated)
[reply] NO

[ask] What classification did COc1ccc(/C=N/N=C(\N)NO)cc1OC end up with in this test?
[reply] NO

[ask] Query: recorded result category for Cc1ccccc1C1=C/C(=C(\SS/C(C(=O)c2ccc(OCC(=O)O)c(Cl)c2Cl)=C2\C=C(c3ccccc3C)SS2)C(=O)c2ccc(OCC(=O)O)c(Cl)c2Cl)SS1 in this test
[reply] NO

[ask] // return assay outcome for Cc1cc(O)nc(NNC(C#N)c2ccccc2O)n1 (configuration not stated)
[reply] NO

[ask] # outcome recorded in this test, key = O=C1NC(c2ccccc2)(c2ccccc2)C(=O)N1CCCCCCN1C(=O)NC(c2ccccc2)(c2ccccc2)C1=O
[reply] NO

[ask] Test call for this compound, please: C=CCn1cc(C(=O)NC(=O)NCCCCCOC(=O)CCCCCCCCCCC(=O)OCCCCCNC(=O)NC(=O)c2cn(CC=C)c(=O)n(C)c2=O)c(=O)n(C)c1=O
[reply] NO

[ask] In this assay, the call recorded for Cc1ccc(C(=O)Nc2ccc(S(=O)(=O)O)c3cc(S(=O)(=O)O)cc(S(=O)(=O)O)c23)cc1NC(=O)c1cccc(NC(=O)Nc2cccc(C(=O)Nc3cc(C(=O)Nc4ccc(S(=O)(=O)O)c5cc(S(=O)(=O)O)cc(S(=O)(=O)O)c45)ccc3C)c2)c1 was what?
[reply] NO

[ask] Look up the recorded call for CC(=O)OC1CC2C(C)(C)OC(=O)CC(OC(C)=O)[C@]2(C)C2CCC3(C)C(=CCC3c3ccoc3)[C@]12C (some centres not stated) in this test.
[reply] NO

[ask] Tell me the recorded outcome of this test for Cc1ccc2nc3cc(C)c(=O)cc-3sc2c1 .
[reply] NO

[ask] Could you check what this test reported for C=CCNC(=O)/C=C\C(=O)O ?
[reply] NO

====

Test system: OVCAR-8
Assay: NCI tumour cell line growth inhibition, 48 h
Activity calls are given as the source filed them. Cut-off read from the data, not from the text of the source: active = GI50 up to about 1.1 µM and inactive = higher.
ENDPOINT_LABEL: GI50

O=S(=O)(NCn1ccc2ccccc21)c1ccccc1 ... > 76.2 µM (inactive)
S=P(N1CC1)(N1CC1)N1CC1 ... 110 µM (inactive)
O=C1Cc2c([nH]c3ccc(Br)cc23)-c2ccccc2N1 ... > 100 µM (inactive)
COc1ccc2cc(CNCCCCCCCCCCCCNCc3ccc4cc(OC)ccc4c3)ccc2c1 ... 15 µM (inactive)
COC[C@@H](/N=C/N1CCc2cc(OC)c(OC)cc2C1)C(C)(C)C ... > 100 µM (inactive)

[ask] // fetch GI50 given entry Cc1c(/C=N/NC(=O)c2ccccc2O)c(=O)n(-c2ccccc2)n1C
[reply] > 100 µM (inactive)

[ask] Determine its reported GI50: CC(=O)OC1COC(n2c(=S)n(-c3ccccc3)c(=O)c3ccccc32)C(OC(C)=O)C1OC(C)=O (configuration not stated)
[reply] 72.8 µM (inactive)

[ask] Entry NC(=S)NS(=O)(=O)c1ccc(Cl)cc1Cl needs its GI50 filled in; supply it.
[reply] > 100 µM (inactive)

[ask] Identify the reported GI50 for the following entry. Cc1ccc2ccccc2c1NC1=NCCO1
[reply] > 100 µM (inactive)

====

Tested on: SK-OV-3
Assay: NCI tumour cell line growth inhibition, 48 h
Activity calls are given as the source filed them. Cut-off read from the data, not from the text of the source: active = GI50 up to about 1.1 µM and inactive = higher.
ENDPOINT_LABEL: GI50

Field: example entries. Status: answers known.
O=c1[nH]c2cc3[nH]c4ncccc4c(=O)c3cc2[nH]1 ... > 10 µM (inactive)
Cc1c(NC(=O)CSC(=S)N2CCN(Cc3ccccc3)CC2)c(=O)n(-c2ccccc2)n1C ... > 100 µM (inactive)
COc1cc2c(c(OC)c1OC)C(=O)CC2N (configuration not stated) ... > 100 µM (inactive)

[ask] Given CN(C)CCSCCO , respond with its GI50.
[reply] > 100 µM (inactive)

[ask] Give me measured GI50, please, for this compound: O=c1nc(N2CCCC2)nc(N2CCCC2)s1
[reply] > 100 µM (inactive)

[ask] Please supply the value of reported GI50 for the item COc1cccc([C@@]2(O)c3c(ccc(O)c3OC)[C@H]2OC)c1OC
[reply] 31.8 µM (inactive)

[ask] Give a short answer stating reported GI50 for Cn1cnc(S[C@H]2[C@H]3C(=O)C=C4S[C@H]5C[C@]42C2=C(N5)C(=O)c4[nH]cc5c4C2=[N+]3CC5)c1C[C@H](N)C(=O)O .
[reply] 21.4 µM (inactive)

[ask] Please give measured GI50 of the following entry: CNS(=O)(=O)NNS(=O)(=O)c1ccc2ccccc2c1
[reply] > 100 µM (inactive)

[ask] Report measured GI50; entry is COC(=O)C1=C(c2ccc(OC)c(OC)c2)OC(c2ccc(OC)c(OC)c2)C1 (configuration not stated)
[reply] 32.6 µM (inactive)

[ask] Give the measured GI50 for O=c1[nH]c(=S)c2cc3c(=S)[nH]c(=O)n(CCC(c4ccccc4)(c4ccccc4)c4ccccc4)c3nc2n1CCC(c1ccccc1)(c1ccccc1)c1ccccc1
[reply] > 100 µM (inactive)

[ask] Return reported GI50. Input compound: COCOc1ccc(Cn2c(=O)n(C)c(=O)c3c2ncn3C)cc1[N+](=O)[O-]
[reply] 49.3 µM (inactive)

[ask] Look up and state reported GI50 for COc1ccc(/C=C2/NC(=S)N=C2Cl)cc1
[reply] > 100 µM (inactive)

[ask] # return recorded GI50 for input CC(C(=O)O)C1Nc2ccccc2NC1=O (configuration not stated)
[reply] > 100 µM (inactive)

[ask] Read the entry Cc1ccccc1C(=O)Oc1ccc(Oc2ccccc2)cc1 and write its reported GI50.
[reply] > 100 µM (inactive)

[ask] Quickly give me recorded GI50 for C1CNOCCCONCCCNOCCCONC1
[reply] 37.1 µM (inactive)

[ask] Answer with reported GI50 of Cc1ccc(NC(=O)CC(=O)n2nc(-c3ccccc3)c(/N=N\c3ccccc3[N+](=O)[O-])c2-c2ccccc2)cc1
[reply] 80.2 µM (inactive)

[ask] Return the recorded GI50 value; entry: CC(=O)n1nc(-c2[nH]c(C)c(-c3nn(C(C)=O)c(=S)o3)c2C)oc1=S
[reply] > 100 µM (inactive)

[ask] Answer with the recorded GI50 for the compound listed here: COc1ccc(-c2cc(=O)c3c(O)cc(O)cc3o2)c(OC)c1OC
[reply] > 100 µM (inactive)

[ask] Answer with reported GI50 of O=C1CCCC1C(=O)Nc1ccc2ccccc2c1 (configuration not stated)
[reply] > 100 µM (inactive)
